Target: HDAC6 enzyme (Homo sapiens, UniProt Q9UBN7)
Construct: prepared by transducing full length HDAC6 gene into Sf-9 insect cells; GST; purchased SignalChem; host or cells: Sf-9 insect cells
Sequence (Q9UBN7 1-1215): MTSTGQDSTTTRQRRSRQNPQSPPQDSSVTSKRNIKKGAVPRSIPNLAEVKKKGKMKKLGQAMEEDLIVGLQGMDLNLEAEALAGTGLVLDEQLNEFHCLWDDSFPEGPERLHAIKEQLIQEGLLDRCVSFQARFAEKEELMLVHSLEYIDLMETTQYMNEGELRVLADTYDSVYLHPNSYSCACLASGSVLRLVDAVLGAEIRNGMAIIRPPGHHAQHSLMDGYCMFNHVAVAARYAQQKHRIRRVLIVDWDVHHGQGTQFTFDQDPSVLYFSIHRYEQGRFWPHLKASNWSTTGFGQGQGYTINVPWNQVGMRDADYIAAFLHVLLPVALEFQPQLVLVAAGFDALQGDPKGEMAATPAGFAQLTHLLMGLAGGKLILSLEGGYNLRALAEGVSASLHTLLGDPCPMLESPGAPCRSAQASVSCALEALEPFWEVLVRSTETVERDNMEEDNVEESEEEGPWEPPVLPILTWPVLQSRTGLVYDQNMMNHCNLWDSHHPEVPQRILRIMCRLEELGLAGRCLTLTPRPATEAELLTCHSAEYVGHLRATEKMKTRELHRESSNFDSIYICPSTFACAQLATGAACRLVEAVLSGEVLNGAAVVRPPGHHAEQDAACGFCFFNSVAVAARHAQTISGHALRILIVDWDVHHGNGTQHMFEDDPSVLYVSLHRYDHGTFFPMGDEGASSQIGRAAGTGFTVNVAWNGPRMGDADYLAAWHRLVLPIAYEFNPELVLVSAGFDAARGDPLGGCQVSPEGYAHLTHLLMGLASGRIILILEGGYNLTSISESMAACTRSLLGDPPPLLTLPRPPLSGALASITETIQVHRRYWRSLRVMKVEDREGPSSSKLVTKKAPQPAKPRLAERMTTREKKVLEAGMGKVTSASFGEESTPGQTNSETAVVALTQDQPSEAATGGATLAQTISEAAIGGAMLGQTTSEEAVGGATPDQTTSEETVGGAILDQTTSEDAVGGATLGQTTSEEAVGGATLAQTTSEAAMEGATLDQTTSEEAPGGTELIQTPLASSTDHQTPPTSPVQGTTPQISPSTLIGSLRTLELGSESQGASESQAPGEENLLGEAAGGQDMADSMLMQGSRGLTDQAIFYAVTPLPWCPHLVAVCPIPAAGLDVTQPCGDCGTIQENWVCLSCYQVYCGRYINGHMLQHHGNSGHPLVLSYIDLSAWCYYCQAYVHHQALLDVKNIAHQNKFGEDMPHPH
Experiment: HDAC6 enzyme inhibitory assay (HDAC-Glo I/II Assay kit, luminescence)
Format: biochemical
Conditions: 10 μM test compound; wells without enzyme = 100% inhibition; 10 µM
measure: HDAC6 inhibitory rate (%) (10 μM)
Unit % implied. Number only.

Worked set:
Prompt line: Lookup: HDAC6 inhibitory rate (%) (10 μM) / HDAC6 enzyme (Homo sapiens, UniProt Q9UBN7) / CN1C(=O)c2cc(-c3nnc(C(F)F)o3)ccc2CC1c1ccc(F)cc1 (single isomer, unassigned; isomer 2) [Example 42b]
Response line: 93

Prompt line: Lookup: HDAC6 inhibitory rate (%) (10 μM) / HDAC6 enzyme (Homo sapiens, UniProt Q9UBN7) / CN1C(=O)c2cc(-c3nnc(C(F)F)o3)ccc2OC1(C)c1ccc(C#N)cc1 (single isomer, unassigned; isomer 2) [Example 37b]
Response line: 100

Prompt line: Lookup: HDAC6 inhibitory rate (%) (10 μM) / HDAC6 enzyme (Homo sapiens, UniProt Q9UBN7) / CN1C(=O)c2cc(-c3nnc(C(F)F)o3)ccc2CC1(C)c1ccc(F)cc1 (single isomer, unassigned; isomer 1) [Example 23b]
Response line: 58

Prompt line: Lookup: HDAC6 inhibitory rate (%) (10 μM) / HDAC6 enzyme (Homo sapiens, UniProt Q9UBN7) / CN1C(=O)c2cc(-c3nnc(C(F)F)o3)cnc2CC1(C)c1ccc(F)cc1 (single isomer, unassigned; isomer 1) [Example 27b]
Response line: 56

Prompt line: Lookup: HDAC6 inhibitory rate (%) (10 μM) / HDAC6 enzyme (Homo sapiens, UniProt Q9UBN7) / CN1C(=O)c2cc(-c3nnc(C(F)F)o3)cnc2CC1(C)c1ccc(F)c(F)c1 (single isomer, unassigned; isomer 1) [Example 39b]
Response line: 76

Prompt line: Lookup: HDAC6 inhibitory rate (%) (10 μM) / HDAC6 enzyme (Homo sapiens, UniProt Q9UBN7) / CN1C(=O)c2cc(-c3nnc(C(F)F)o3)ccc2CC1(C)c1ccc(F)cc1 (single isomer, unassigned; isomer 2) [Example 24b]
Response line: 99

Prompt line: Lookup: HDAC6 inhibitory rate (%) (10 μM) / HDAC6 enzyme (Homo sapiens, UniProt Q9UBN7) / CN1C(=O)c2cc(-c3nnc(C(F)F)o3)ccc2OC1(C)c1ccc(C#N)cc1 (single isomer, unassigned; isomer 1) [Example 36b]
Response line: 62

Prompt line: Lookup: HDAC6 inhibitory rate (%) (10 μM) / HDAC6 enzyme (Homo sapiens, UniProt Q9UBN7) / CN1C(=O)c2cc(-c3nnc(C(F)F)o3)cnc2CC1(C)c1ccc(F)cc1 (single isomer, unassigned) [Example 1b]
Response line: 100

Prompt line: Lookup: HDAC6 inhibitory rate (%) (10 μM) / HDAC6 enzyme (Homo sapiens, UniProt Q9UBN7) / CN1C(=O)c2cc(-c3nnc(C(F)F)o3)cnc2CC1(C)c1ccc(F)c(F)c1 (single isomer, unassigned; isomer 2) [Example 40b]
Response line: 100

Note: attention shifts to another entry.
Prompt line: Lookup: HDAC6 inhibitory rate (%) (10 μM) / HDAC6 enzyme (Homo sapiens, UniProt Q9UBN7) / CN1C(=O)c2cc(-c3nnc(C(F)F)o3)ccc2OC1(C)c1ccc(F)cc1 (single isomer, unassigned; isomer 2)
Response line: 96
